assay: AUC (0 to 24 hrs) in Sprague-Dawley rat at 3 mg/kg, po; format: ADME, organism-based; design: time < 24 hr, dose 3 mg/kg, route oral; settings: plasma
experimentalReadout: AUC(0-t) at 24 h (ng·h/mL)
Answers are plain numbers, in ng·h/mL.

### Prompt Entry Cc1c(COc2cccc(OCC3CCOCC3)c2)[nH]c2ccccc2c1=O : reported AUC(0-t) at 24 h = ?
### Response 526

---

experiment: Aqueous solubility of the compound at pH 6.8; format: physicochemical; conditions: aqueous medium
Assignment: determine reported solubility for the given compounds.

Answered examples (3):
### Prompt Entry CC(C)c1c(COc2cccc(OCC3CCOCC3)c2)[nH]c2ccccc2c1=O : reported solubility = ?
### Response 3 µM

### Prompt Also, Cc1c(COc2cc(OCC3CCOCC3)ccn2)[nH]c2ccccc2c1=O please.
### Response 36 µM

### Prompt Also, CCCCCC/C=C/Cc1[nH]c2ccccc2c(=O)c1C please.
### Response < 1 µM

For every item below, please supply its solubility.
1. CCCCCCCCCc1[nH]c2ccccc2c(=O)c1C
2. COCCOCCCCc1[nH]c2ccccc2c(=O)c1C

### Response
["< 1 µM", "≥ 100 µM"]

For every item below, please supply its solubility.
1. Cc1c(COc2cccc(OCC3CCOCC3)c2)[nH]c2ccc(Br)cc2c1=O
2. Cc1c(COc2ccnc(OCC3CCOCC3)c2)[nH]c2ccccc2c1=O
3. Cc1c(COc2cccc(OCCCC(F)(F)F)c2)nc2ccccc2c1O
4. Cc1c(COc2cccc(OCC3CCOCC3)c2)[nH]c2ccc(-c3cccnc3)cc2c1=O
5. Cc1c(COc2cncc(OCC3CCOCC3)c2)[nH]c2ccccc2c1=O
6. Cc1ccc2[nH]c(COc3cccc(OCC4CCOCC4)c3)c(C)c(=O)c2c1

### Response
1: < 1 µM; 2: 22 µM; 3: < 1 µM; 4: < 1 µM; 5: ≥ 100 µM; 6: < 1 µM

---

Assignment: determine reported half-life for the given compounds.
test: Half life in Sprague-Dawley rat at 0.3 mg/kg, iv; assay type: ADME, organism-based; set-up: dose 0.3 mg/kg, route intravenous; settings: in vivo
Numbers only, in h.

### Prompt Entry Cc1c(COc2cc(OCCC(C)(C)O)ccn2)[nH]c2ccccc2c1=O : reported half-life = ?
### Response 4.1

Moving on to the next compound.
### Prompt Entry Cc1c(COc2cccc(OCC3CCOCC3)c2)[nH]c2ccccc2c1=O : reported half-life = ?
### Response 1.8

---

test: Aqueous solubility of the compound at pH 6.8; type: physicochemical; conditions: aqueous medium
experimentalReadout: solubility (µM)
Numbers only, in µM.

Answered examples (2):
### Prompt Entry Cc1c(COc2cccc(OCC3CCOCC3)c2)[nH]c2ccccc2c1=O : reported solubility = ?
### Response 5

### Prompt Also, Cc1c(COc2cccc(OCC3CCOCC3)c2)[nH]c2ccc(F)cc2c1=O please.
### Response 2

More entries:
### Prompt Entry COC(C)(C)CCOc1cccc(OCc2[nH]c3ccccc3c(=O)c2C)c1 : reported solubility = ?
### Response 2

---

Assignment: determine reported AUC(0-t) at 24 h for the given compounds.
assay: AUC (0 to 24 hrs) in Sprague-Dawley rat at 0.3 mg/kg, iv; type: ADME, organism-based; parameters: time < 24 hr, dose 0.3 mg/kg, route intravenous; conditions: plasma
Answers are plain numbers, in µg·h/mL.

### Prompt Entry Cc1c(COc2cccc(OCC3CCOCC3)c2)[nH]c2ccccc2c1=O : reported AUC(0-t) at 24 h = ?
### Response 0.196

Moving on to the next compound.
### Prompt Entry Cc1c(COc2cc(OCCC(C)(C)O)ccn2)[nH]c2ccccc2c1=O : reported AUC(0-t) at 24 h = ?
### Response 0.897
